Taken from PubChem BioAssay.

Answer each item with its documented z-score.
testDescription: FRG1 expression reporter modulators in myotubes – cell-based, C2C12 myotubes, firefly/Renilla luciferase, luminescence, FRG1 inhibition for FSHD, primary screen (AID 1084)
conditionLabel: FRG1 promoter luciferase, higher = more signal, called active from +8 up or from −8 down
Calls of active or inactive are those of the source.

molecule CC(C)NC(=O)[C@@H]1c2ccccc2C(=O)N(Cc2ccc(OC(F)(F)F)cc2)[C@H]1c1ccc(CO)cc1 , z-score observed: -1.05 (inactive)

Entry [N-]=[N+]=Nc1ccccc1[C@@H]1OC(c2ccc(OCCCO)cc2)=N[C@]1(CCS(=O)(=O)c1ccccc1)C(=O)NCC(O)CO (stereo partly drawn) — recorded z-score = -0.463 (inactive)

The value of z-score measured for the molecule C=CC[C@@]1(C(=O)N(C)C)N=C(c2ccc(OCCCO)cc2)O[C@@H]1c1ccccc1CN=[N+]=[N-] turned out to be -2.64 (inactive)

For record CO[C@H]1O[C@H](CO)[C@@H](OC(=O)Nc2ccccc2-c2ccccc2)[C@H](OC(=O)Nc2ccccc2)[C@H]1OC(=O)Nc1ccccc1 the listed z-score is 1.66 (inactive)

Lab note: C=CC[C@@]1(C(=O)OC)N=C(c2ccc(OCCCO)cc2)O[C@@H]1c1ccccc1N=[N+]=[N-] gave z-score of 1.54 (inactive)

Value of measured z-score for the entry C#CCN1[C@@H](Cc2ccccc2)C(=O)O[C@H](Cc2ccccc2)[C@@H]1/C=C/C1CC1 : -3.46 (inactive)

According to the records, this molecule COc1ccc(NN2C(C(O)c3ccc(I)cc3)C=CC3C(=O)N(C4CCCCC4)C(=O)C32)cc1 (stereo not drawn) displays z-score of -0.21 (inactive)

Noted for O=C(O)[C@H](Cc1ccccc1)n1cc(C2(O)CCCCC2)nn1 : its z-score reads 1.64 (inactive)

----------
For each record, write down the corresponding z-score.
testDescription: growth modulation of vineyard yeast isolate – strain RM11-1a, OD600, basal, 24 h, primary screen (AID 1177);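 also: cultures grown under basal conditions with no added stressor; test concentration not given here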
conditionLabel: S. cerevisiae RM11-1a growth, OD600, 24 h; higher = more signal, called active from +8 up or from −8 down
Active and inactive are the calls of the source.

Reported z-score of C=C(/C(=C/C[C@@H](OC(C)=O)c1cccc(OCCO)c1)c1cnc2ccccc2c1)C(C)C : 0.183 (inactive)

Form field z-score, entry COCCCNC(=O)[C@@]1(CCC(=O)OC(C)(C)C)COC(c2ccc(OCCCO)cc2)=N1 : -0.561 (inactive)

Briefly, z-score measured for CCOC(=O)C[C@H]1[C@H](OC(=O)Cc2ccc3c(c2)OCO3)[C@@H](NC(=O)Cc2ccc(OC)cc2)c2cc(OCCCO)ccc2N1C(=O)Cc1ccc(OC)cc1 : -1.62 (inactive)

Data point: COC(=O)[C@@]1(Cc2ccc(OC)cc2)[C@H]2c3cc(C(=O)N4CCCC4)n(Cc4ccc(Cl)c(C(F)(F)F)c4)c3C[C@H]2CN1C(=O)c1ccccc1 ; z-score = 0.276 (inactive)

# z-score (compound: C=CC[C@@]12N=C(c3ccc(OCCCO)cc3)O[C@@H]1c1ccccc1N(CCC)C2=O ) is 0.829 (inactive)

The compound listed as O=C1C2C=CC(C(O)C3CCCCC3)N(n3cnnc3)C2C(=O)N1Cc1ccccc1 (stereo not given) has a reported z-score of -0.618 (inactive)

Field z-score (entry COCCOC(=O)N1C(=O)[C@@]2(c3ccccc31)[C@H](c1ccc(O)cc1)N1[C@H](c3ccccc3)[C@H](c3ccccc3)OC(=O)[C@H]1[C@@H]2C(=O)N1CCCCCCC1 ) reads -0.122 (inactive)

z-score in this record for OCCCC1=CC(c2ccc(CN3CCCC3)cc2)N(Cc2cccc(OC(F)(F)F)c2)CC1 (stereo not given) : 0.195 (inactive)

// z-score lookup, compound = O=C1N(CCS(=O)(=O)c2ccccc2)c2ccccc2C[C@]12N=C(c1ccc(OCCCO)cc1)O[C@@H]2c1ccccc1 , result: 2.74 (inactive)

Reported z-score ( C=CCNC(=O)[C@@H]1[C@H]2C(=O)O[C@H](c3ccccc3)[C@H](c3ccccc3)N2[C@H](c2ccc(OCCO)cc2)[C@@]12C(=O)Nc1ccc(C#CC3(O)CCCCCC3)cc12 ) = 1.16 (inactive)

# z-score of O=C(NCC(O)CO)C1N=C(c2ccc(OCCCO)cc2)N(c2ccccc2)O1 (stereo not given) = -0.406 (inactive)

# z-score (compound: CC(C)NC(=O)[C@@]1(c2ccc([N+](=O)[O-])cc2)CC(=O)N(CC23CC4CC(CC(C4)C2)C3)[C@@H]1c1ccc(CO)cc1 ) is 0.311 (inactive)

// sample NC(=O)N1C(=O)C2C(C1=O)C1C=C(CCCO)C2C(c2ccc(CN3CCCC3)cc2)N1Cc1cc2c(cc1Br)OCO2 (stereo not given) , its z-score was -0.572 (inactive)

Record CCCC#C[Si](O[C@H](CC)c1cn(Cc2ccccc2)nn1)(C(C)C)C(C)C . Reported z-score: -0.0787 (inactive)

Reported z-score of COC(=O)[C@]1(Cc2ccccc2)N=C(c2ccc(OCCCO)cc2)O[C@@H]1c1ccccc1CN=[N+]=[N-] : 2.72 (inactive)

For record CC(C)C(O)C1C=CC2C(=O)NC(=O)C2N1Nc1ccccn1 (stereo not given) the listed z-score is 0.696 (inactive)

Lab book: z-score of [N-]=[N+]=Nc1ccccc1[C@@H]1OC(c2ccc(OCCCO)cc2)=N[C@]1(CCS(=O)(=O)c1ccccc1)C(=O)NCC(O)CO (stereo not given in full) noted as 0.777 (inactive)

response.value for COc1cc(OC)c(C(O)C2C=CC3C(=O)N(c4ccccc4)C(=O)C3N2Nc2ccc(C(C)C)cc2)cc1Br (stereo not given) (field: z-score) = 0.171 (inactive)

// CC(C)NC(=O)[C@@]1(C)c2ccccc2C(=O)N(Cc2ccccc2)[C@H]1c1ccc(CO)cc1 : z-score value = -1.29 (inactive)

Record summary for COc1ccc([Si](C)(C)[C@H]2[C@H](CC(=O)N3CCC[C@H]3CO)O[C@@]3(C(=O)N(Cc4ccc(N5CCCCC5=O)cc4)c4ccccc43)[C@@H]2C)cc1 : reported z-score = 1.57 (inactive)

z-score in this record for COc1ccc(C(O)C2C=CC3C(=O)N(c4ccccc4)C(=O)C3N2Nc2ccc([N+](=O)[O-])cc2)c2ccccc12 (stereo not given) : 0.0842 (inactive)

Looking up CN1C(=O)C2C(C1=O)C1C=C(CCCO)C2C(C2CC2)N1Cc1cccc(OC(F)(F)F)c1 (stereo not given) , I see its z-score listed as 0.132 (inactive)

// field: z-score; key: CC(C)(C)OC(=O)CC[C@]1(C(=O)NCC(O)CO)N=C(c2ccc(OCCCO)cc2)O[C@H]1c1ccccc1N=[N+]=[N-] (stereo not given in full) ; value = -0.134 (inactive)

The compound listed as COCCOC(=O)N1C(=O)[C@@]2(c3cc(C#CCC(C(=O)OC)C(=O)OC)ccc31)[C@H](C(=O)Nc1nc3ccccc3s1)[C@H]1C(=O)O[C@H](c3ccccc3)[C@H](c3ccccc3)N1[C@@H]2c1ccc(OCCO)cc1 shows z-score equal to 2.25 (inactive)

Data point: O=C(NCc1ccc(F)cc1)[C@H]1C[C@H]2C(=O)N3CCC[C@H]3C(=O)N2[C@H]1c1ccc(O)cc1 ; z-score = -0.795 (inactive)

Record CC(C)=CCCC=C(C)C(O)C1C=CC2C(=O)N(c3ccccc3)C(=O)C2N1Nc1ccc(C#N)cc1 (stereo not given) , field z-score: -1.63 (inactive)

# z-score (compound: CC=CC(O)C1C=CC2C(=O)NC(=O)C2N1Nc1ccc(Cl)cc1Cl (stereo not given) ) is 1.52 (inactive)

Field z-score (entry COC(=O)[C@@]1(Cc2ccc(F)cc2)[C@H]2c3cc(C(=O)N(C)C)n(CCc4ccc(O)c(O)c4)c3C[C@H]2CN1C(=O)c1ccccc1 ) reads 0.232 (inactive)

z-score in this record for COc1cc(C(O)C2C=CC3C(=O)N(c4ccccc4)C(=O)C3N2Nc2ccccc2)cc(OC)c1OC (stereo not given) : 0.499 (inactive)

Noted for CCOC(=O)C1=CC[C@@H](c2ccc(OC)cc2)N(S(=O)(=O)c2ccc(C)cc2)[C@H]1CC : its z-score reads -0.0802 (inactive)

----------
testDescription: blockers of DNA damage checkpoint Chk1 activation – imaging, HeLa, hydroxyurea, phospho-Chk1 antibody, percent positive cells, primary screen (AID 1186)
conditionLabel: hydroxyurea-induced phospho-Chk1 immunofluorescence imaging, higher = more signal
recordedEndpoint: z-score
Please reply with the number alone, leaving off any unit.

Per the record, C=CCNC(=O)[C@H]1[C@@H]2C(=O)O[C@@H](c3ccccc3)[C@@H](c3ccccc3)N2[C@@H](c2ccc(OCCO)cc2)[C@]12C(=O)Nc1ccc(C#CC3(O)CCCCCC3)cc12 has z-score of 0.541

Input CN(C)CCCNC(=O)[C@@]1(Cc2ccccc2I)c2ccccc2C(=O)N(C2CCCCC2)[C@H]1c1ccc(CO)cc1 . Output z-score: -0.332

Recorded z-score (compound O=C(NCc1ccc(F)cc1)[C@H]1C[C@H]2C(=O)N3CCC[C@H]3C(=O)N2[C@H]1c1ccc(O)cc1 ): -0.717

# compound COc1cc(C(O)C2C=CC3C(=O)N(c4ccccc4)C(=O)C3N2Nc2ccccc2)cc(OC)c1OC (configuration not stated) ; its z-score = -0.153

Lab note: COc1ccc([Si](C)(C)[C@H]2[C@H](CCO)O[C@@]3(C(=O)N(Cc4cccc(N5C(=O)c6ccccc6Oc6ccccc65)c4)c4ccccc43)[C@@H]2C)cc1 gave z-score of -0.432

Form field z-score, entry C=C(COC)C(=O)CC[C@H](OC(=O)c1cccnc1)c1ccc(OCCO)cc1 : 0.35

// sample C=C(CCCC)/C(=C/C[C@H](OC(=O)c1ccncc1)c1ccccc1OCCO)c1cc(C(=O)OC)ccc1OC , its z-score was -1.15
